- Procedure Text: The concentration required for inhibiting the growth of the murine B16-F0 melanoma cells by 50%
- Assay type: functional
- Test Context: Mus musculus, B16F0
Readout Label: IC50 (nM)

compound=Nc1cc(NC(=O)c2cc3cc(NC(=O)c4cc5ccccc5o4)ccc3[nH]2)c(CCCl)c2ccccc12 readout_label=IC50 recorded_measurement=43
compound=COc1ccc(/C=C/C(=O)Nc2cc(N)c3ccccc3c2CCCl)c(OC)n1 readout_label=IC50 recorded_measurement=62
compound=COC(=O)c1[nH]c2c(O)cc(NC(=O)c3cc4cc(OC)c(OC)c(OC)c4[nH]3)c(CCCl)c2c1C(=O)OC readout_label=IC50 recorded_measurement=6800
compound=COc1cc2cc(C(=O)Nc3cc(O)c4ccccc4c3CCCl)[nH]c2c(OC)c1OC readout_label=IC50 recorded_measurement=27
compound="COc1cc2cc(C(=O)N3CC(CCl)c4c3cc(O)c3ccccc43)[nH]c2c(OC)c1OC (centres undefined)" readout_label=IC50 recorded_measurement=78
compound=COc1ccc2[nH]c(C(=O)Nc3cc(N)c4ccccc4c3CCCl)cc2c1 readout_label=IC50 recorded_measurement=260
compound=COc1cc2cc(C(=O)Nc3cc(N)c4ccccc4c3CCOC(C)=O)[nH]c2c(OC)c1OC readout_label=IC50 recorded_measurement=54000
compound=COc1cc2cc(C(=O)Nc3cc(NCc4ccccc4)c4ccccc4c3CCCl)[nH]c2c(OC)c1OC readout_label=IC50 recorded_measurement=5400
compound=COc1cc2cc(C(=O)Nc3cc(N)c4ccccc4c3CCO)[nH]c2c(OC)c1OC readout_label=IC50 recorded_measurement=60000

* * *

- Procedure Text: The concentration required for inhibiting the growth of the murine B16-F0 melanoma cells by 50%
- Assay type: functional
- Test Context: Mus musculus, B16F0
pIC50: −log10 of the molar value.
Overview of reported pIC50 across a group of compounds:
Readout Label: pIC50

sample_smiles=COc1cc2cc(C(=O)Nc3cc(N)c4ccccc4c3CCCl)[nH]c2c(OC)c1OC readout_label=pIC50 value_qualifier== recorded_measurement=6.82
sample_smiles=COc1cc2cc(C(=O)Nc3cc(OCc4ccccc4)c4ccccc4c3CCCl)[nH]c2c(OC)c1OC readout_label=pIC50 value_qualifier=< recorded_measurement=4.00
sample_smiles=COc1ccc(/C=C/C(=O)Nc2cc(N)c3ccccc3c2CCCl)nc1 readout_label=pIC50 value_qualifier== recorded_measurement=6.12
